# key: entry, value: IC50
biological target: C-C chemokine receptor type 2 (Homo sapiens, UniProt P41597); experiment: Displacement of [125I]hMCP1 from human CCR2 receptor expressed in CHO cells
Sequence (P41597 whole entry): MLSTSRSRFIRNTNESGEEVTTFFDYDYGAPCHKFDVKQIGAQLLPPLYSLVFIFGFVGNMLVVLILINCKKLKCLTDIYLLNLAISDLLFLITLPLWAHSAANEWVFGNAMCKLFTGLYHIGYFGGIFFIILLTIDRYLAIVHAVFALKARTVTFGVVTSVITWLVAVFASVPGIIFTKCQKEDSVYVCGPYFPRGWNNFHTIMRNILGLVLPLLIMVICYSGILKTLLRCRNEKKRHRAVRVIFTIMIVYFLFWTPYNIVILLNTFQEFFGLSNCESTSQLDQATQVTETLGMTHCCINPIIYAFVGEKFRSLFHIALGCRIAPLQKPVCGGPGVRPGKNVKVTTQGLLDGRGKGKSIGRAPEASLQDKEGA
Write the quantity with the unit trailing the number.

Example entries and their recorded answers appear below.
compound: CC1CC(N[C@@H]2CC[C@@](C(=O)NCc3cc(C(F)(F)F)cc(C(F)(F)F)c3)(C(C)C)C2)CCO1 (some centres not stated)
IC50: 28 nM
//
compound: CC1COCCC1N[C@@H]1CC[C@@](C(=O)NCc2cc(C(F)(F)F)cc(C(F)(F)F)c2)(C(C)C)C1 (stereo in doubt; 59)
IC50: 1.2 nM
//
compound: CC(C)[C@]1(C(=O)NCc2cc(C(F)(F)F)cc(C(F)(F)F)c2)CC[C@@H](NC2CCOC2)C1 (some centres not stated)
IC50: 85 nM
//
compound: CC(C)[C@]1(C(=O)NCc2cc(C(F)(F)F)cc(C(F)(F)F)c2)CC[C@@H](NC2CCSCC2)C1
IC50: 22 nM

Given CC1COCCC1N[C@@H]1CC[C@@](C(=O)NCc2cc(C(F)(F)F)cc(C(F)(F)F)c2)(C(C)C)C1 (stereo in doubt; 58) , state its recorded IC50. 4 nM

Check CC(C)[C@]1(C(=O)NCc2cc(C(F)(F)F)cc(C(F)(F)F)c2)CC[C@@H](NC2CCOCC2)C1 too. 4.6 nM

Check CC(C)[C@]1(C(=O)NCc2cc(C(F)(F)F)cc(C(F)(F)F)c2)CC[C@@H](NC2CCSC2)C1 (some centres not stated) too. 36 nM
